target: Proteasome subunit beta (Trypanosoma cruzi); test: Trypanosoma cruzi proteasome chymotrypsin-like activity (TcProtChymo) assay.; format: functional; parameters: scale not given: in the data most compounds retested in dose-response had high values; conditions: 9.37 µM
The following molecules are listed with their measured Percent Effect values.
result.type: Percent Effect (%)

INSERT INTO assay_data (molecule, result_type, recorded_result) VALUES
  ('CCn1ncnc1C(C)NC(=O)C1CCN(C(=O)COC)CC1 (centres undefined)', 'Percent Effect', 9.19),
  ('CN(CCNC(=O)NCc1ccncc1)C1CCCC1', 'Percent Effect', -6.31),
  ('Cc1nc(CN2CCCC(N(C)CCc3ccncc3)C2)no1 (centres undefined)', 'Percent Effect', 10.4),
  ('CCc1nc(C2CCCN(C(=O)c3cccc4c3ccn4C)C2)no1 (centres undefined)', 'Percent Effect', 5.92),
  ('Clc1ccc(OCCN2CCN(CCn3cncn3)CC2)cc1', 'Percent Effect', 4.48),
  ('Cc1cccc(COC[C@@H]2CC[C@H]3[C@H](CCN3Cc3ccco3)O2)n1', 'Percent Effect', 15.2),
  ('CNCC(=O)N1CCCC(c2nccnc2Oc2cccc(F)c2)C1 (centres undefined)', 'Percent Effect', 9.25),
  ('CCN1CCn2c(C)cnc2C12CCN(C(=O)c1ccc(Cl)cc1)CC2', 'Percent Effect', 11.1),
  ('COc1ccc(CN(C)CC2(O)CCN(C(=O)c3cccn3C)C2)cc1 (centres undefined)', 'Percent Effect', -1.87),
  ('Cc1cc(C)c2c(c1)C1(CC(=O)Nc3c1cnn3C(C)C)C(=O)N2 (centres undefined)', 'Percent Effect', 8.87),
  ('O=C(Nc1cn[nH]c1)c1ccc(O)nc1', 'Percent Effect', 5.68),
  ('COC(=O)c1cccn1C1CCN(C(=O)c2cn[nH]c2C)CC1', 'Percent Effect', 8.11),
  ('CC(C)c1ccc(C(C)NC(=O)N2CCC(n3cncn3)CC2)cc1 (centres undefined)', 'Percent Effect', 5.49),
  ('COc1ccc(Br)c(C(=O)NCCNc2ccc(C(F)(F)F)cn2)c1', 'Percent Effect', 10.9),
  ('N#Cc1ccccc1CN1C[C@@H]2CC[C@H](C1)N(CC1CC1)C2=O', 'Percent Effect', 13.4),
  ('Cc1noc(CN2Cc3ccccc3CC2c2nnc(C)o2)n1 (centres undefined)', 'Percent Effect', 5.58),
  ('Cc1cnn(CC2CCCN2C(=O)c2ccc3[nH]nnc3c2)c1 (centres undefined)', 'Percent Effect', 17.5),
  ('Cc1ccc(NC(=O)Nc2cnc(N3CCN(C)CC3)nc2)c(Cl)c1', 'Percent Effect', 5.22),
  ('O=C(c1cnc(-c2cccs2)s1)N1CCCC(n2cccn2)C1 (centres undefined)', 'Percent Effect', 3.24),
  ('Nc1cc(N2CCCC2c2cnccn2)ncn1 (centres undefined)', 'Percent Effect', 14.8),
  ('CCn1cc(N2Cc3nc(N)ncc3C2=O)cn1', 'Percent Effect', 13.9),
  ('CCS(=O)(=O)c1ccccc1N1CCC(NC(=O)c2ccc[nH]2)CC1', 'Percent Effect', 2.15),
  ('O=S1(=O)c2ccccc2C2(CCN(Cc3ccccc3)C2)N1CC1CC1 (centres undefined)', 'Percent Effect', -0.264),
  ('Cc1ccc(C(=O)N2CCC3(CC2)CC(c2ccccc2)C(=O)N3)cn1 (centres undefined)', 'Percent Effect', 18.1);

###

# reported Percent Effect; entries follow
biological target: Protein translocase subunit SecA (Escherichia coli (strain K12)) (UniProt P10408); experiment: Assay to Identify E. coli SecA ATPase Inhibitors; assay type: functional; parameters: scale not given: direction of the effect not stated beside the values; settings: 30 µM
Sequence (P10408 whole entry): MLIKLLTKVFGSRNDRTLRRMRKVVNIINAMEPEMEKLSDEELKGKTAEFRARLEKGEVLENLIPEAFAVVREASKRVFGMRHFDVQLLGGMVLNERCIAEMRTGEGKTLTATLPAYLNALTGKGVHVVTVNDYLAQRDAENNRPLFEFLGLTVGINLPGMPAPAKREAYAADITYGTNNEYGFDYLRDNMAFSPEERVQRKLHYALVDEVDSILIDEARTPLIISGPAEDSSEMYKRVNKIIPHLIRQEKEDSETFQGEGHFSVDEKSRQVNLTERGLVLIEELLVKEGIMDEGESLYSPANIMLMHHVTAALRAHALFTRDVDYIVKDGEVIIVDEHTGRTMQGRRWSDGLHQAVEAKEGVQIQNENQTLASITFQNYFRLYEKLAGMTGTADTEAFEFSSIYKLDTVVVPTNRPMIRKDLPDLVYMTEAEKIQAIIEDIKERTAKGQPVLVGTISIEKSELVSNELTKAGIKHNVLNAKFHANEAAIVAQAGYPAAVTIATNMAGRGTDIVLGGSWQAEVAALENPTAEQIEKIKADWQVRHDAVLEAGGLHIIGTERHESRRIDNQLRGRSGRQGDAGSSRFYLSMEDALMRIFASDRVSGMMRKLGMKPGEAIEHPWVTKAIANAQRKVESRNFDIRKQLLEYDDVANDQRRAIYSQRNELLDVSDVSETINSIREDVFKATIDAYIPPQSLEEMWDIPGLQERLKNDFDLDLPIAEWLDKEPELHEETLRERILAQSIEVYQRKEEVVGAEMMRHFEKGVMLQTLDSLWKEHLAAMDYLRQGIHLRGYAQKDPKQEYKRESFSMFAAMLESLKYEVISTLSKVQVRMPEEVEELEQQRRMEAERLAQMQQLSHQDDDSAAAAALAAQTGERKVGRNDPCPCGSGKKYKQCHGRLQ
Results with a measured potency or affinity are listed apart.
result.type: Percent Effect

INSERT INTO results (molecule, result_type, recorded_result) VALUES
  ('COc1cccc(CN2CCCCCC2c2cccs2)c1O (configuration not stated)', 'Percent Effect', '-0.394%'),
  ('CNS(=O)(=O)c1cccc(C(C)NCc2cccc(OC)c2)c1 (configuration not stated)', 'Percent Effect', '-3.08%'),
  ('Cc1nc(C2CCCN2CC(=O)N(Cc2ccsc2)C2CC2)no1 (configuration not stated)', 'Percent Effect', '-3.4%'),
  ('Cc1cc(CNC(=O)NC(C)c2ccc(N3CCOCC3)cc2)no1 (configuration not stated)', 'Percent Effect', '-5.74%'),
  ('CCCc1nc(C)cc(N2CCC3(CCC(=O)N(CCOC)C3)CC2)n1', 'Percent Effect', '-4.76%'),
  ('CC(Cn1ccnc1)NC(=O)NCCc1ccccn1 (configuration not stated)', 'Percent Effect', '-1.01%'),
  ('Cc1csc(N2CCN(C(=O)CCC(=O)c3ccc(C)s3)CC2)n1', 'Percent Effect', '-3.76%'),
  ('C[C@@H]1CN(C(=O)NC2CC2)C[C@]12CCN(c1ccsc1)C2=O', 'Percent Effect', '-4.11%'),
  ('CC(C)(C)C(=O)N1CCCC1c1nc(O)cc(-c2ccccn2)n1 (configuration not stated)', 'Percent Effect', '-5.78%'),
  ('c1cnn(CC2CN(CC3CCCC3)CCO2)c1 (configuration not stated)', 'Percent Effect', '-5.26%'),
  ('CCc1csc(C2CCCN(C(=O)c3ccnc(N(C)C)c3)C2)n1 (configuration not stated)', 'Percent Effect', '-1.95%'),
  ('CS(=O)(=O)c1ccc(OCCNCc2ccc(F)cc2F)cc1', 'Percent Effect', '-5.74%');

###

# Percent Effect per entry
Molecular target: Ubiquitin-activating enzyme e1, putative (Leishmania donovani (strain BPK282A1)) (UniProt E9BSI1)
Sequence (whole entry): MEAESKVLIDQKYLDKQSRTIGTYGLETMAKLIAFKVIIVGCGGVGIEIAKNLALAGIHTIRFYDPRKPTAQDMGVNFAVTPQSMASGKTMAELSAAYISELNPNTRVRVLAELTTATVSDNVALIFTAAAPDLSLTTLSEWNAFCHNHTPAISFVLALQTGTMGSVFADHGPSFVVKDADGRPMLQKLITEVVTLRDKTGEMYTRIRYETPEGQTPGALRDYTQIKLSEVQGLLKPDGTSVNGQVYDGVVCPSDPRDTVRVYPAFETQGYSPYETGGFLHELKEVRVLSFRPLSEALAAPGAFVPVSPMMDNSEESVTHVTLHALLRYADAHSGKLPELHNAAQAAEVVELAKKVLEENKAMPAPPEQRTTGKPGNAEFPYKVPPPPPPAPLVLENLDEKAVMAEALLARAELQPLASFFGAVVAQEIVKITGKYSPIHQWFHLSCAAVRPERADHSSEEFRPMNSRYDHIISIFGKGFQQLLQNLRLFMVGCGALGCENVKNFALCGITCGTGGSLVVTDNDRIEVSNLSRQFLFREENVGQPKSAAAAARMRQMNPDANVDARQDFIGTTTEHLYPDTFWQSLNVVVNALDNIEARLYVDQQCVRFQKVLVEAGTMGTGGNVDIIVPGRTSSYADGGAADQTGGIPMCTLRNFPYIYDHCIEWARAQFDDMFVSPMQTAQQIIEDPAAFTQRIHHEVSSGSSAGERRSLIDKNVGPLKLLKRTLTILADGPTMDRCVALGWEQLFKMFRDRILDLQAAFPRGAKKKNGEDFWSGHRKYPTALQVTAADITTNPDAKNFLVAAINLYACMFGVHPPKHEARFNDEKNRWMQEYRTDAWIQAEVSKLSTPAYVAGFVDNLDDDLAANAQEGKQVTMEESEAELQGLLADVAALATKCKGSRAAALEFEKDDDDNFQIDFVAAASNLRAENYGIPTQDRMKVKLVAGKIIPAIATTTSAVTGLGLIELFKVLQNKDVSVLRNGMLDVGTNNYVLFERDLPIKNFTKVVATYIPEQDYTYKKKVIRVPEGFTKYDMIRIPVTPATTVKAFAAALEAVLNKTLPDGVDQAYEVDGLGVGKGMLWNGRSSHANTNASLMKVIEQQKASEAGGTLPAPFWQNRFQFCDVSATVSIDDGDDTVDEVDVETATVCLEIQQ
Test: Leishmania donovani Ubiquitin Activating Enzyme (LdE1)
Assay type: functional
Design: scale not given: direction of the effect not stated beside the values
Details: 30 µM
Potency and affinity values are given separately.
result.type: Percent Effect

INSERT INTO results (molecule, recorded_result) VALUES
  ('O=C1OC2(CCNCC2)CN1CC(=O)N1CCCC1c1ccco1 (stereo not given)', '5.41%'),
  ('CCCc1n[nH]c(C2CN(C(=O)C3=COCCC3)CCO2)n1 (stereo not given)', '2.63%'),
  ('CCN(CCNC(=O)c1ccccc1Br)C1CC1', '-6.33%'),
  ('Cc1ncc(CNC2CCCN(Cc3noc(C4CC4)n3)C2)s1 (stereo not given)', '10.5%'),
  ('c1ccc(OCCCNCCn2cccn2)cc1', '1.27%'),
  ('O=C(NCC1CCOC1)c1csc(-c2cccc(Cl)c2)n1 (stereo not given)', '10.4%'),
  ('NC(=O)C(CNC(=O)COCC(F)(F)F)Cc1ccc(F)cc1 (stereo not given)', '5.26%'),
  ('CC(O)CN1CCC(CNCc2ccc(S(C)(=O)=O)cc2)CC1 (stereo not given)', '19.2%'),
  ('O=C1NCCN1C1CCCN(Cc2nnc(-c3ccc(F)cc3)o2)C1 (stereo not given)', '2.7%'),
  ('CCc1nc(CN2CCCN(c3nc4ccccc4o3)CC2)no1', '13%'),
  ('Cc1cccc(C)c1OCCNC(=O)NC(C)c1nncn1C (stereo not given)', '15.6%'),
  ('CCC(CC)c1cc(CNC(=O)N2CCCC(N(C)C)C2)on1 (stereo not given)', '8.11%'),
  ('CCN1CCn2c(C)cnc2C12CCN(C(=O)c1ccc(Cl)cc1)CC2', '10.7%'),
  ('COCCC(=O)Nc1ccnc(Oc2ccccc2)c1', '-5.26%'),
  ('CN(CCN1CCOCC1)C(=O)CCCc1ccccc1', '0%'),
  ('CN1CC(=O)N(c2ccccc2)CC12CCN(Cc1cccnc1)C2 (stereo not given)', '0%'),
  ('O=C(c1ccc2c(c1)OCO2)N1CCCC(n2cccn2)C1 (stereo not given)', '10.8%'),
  ('O=C(c1cccc(Cl)c1)N1CC[C@H]2[C@H]1CCN2CC1CCOCC1', '0%'),
  ('CNS(=O)(=O)c1ccc(C(=O)NC2CCOc3ccccc32)o1 (stereo not given)', '18.4%'),
  ('CC(C)c1nn(C)c(Cl)c1CNCc1ccc2c(c1)OCCO2', '10.5%'),
  ('CCNC(=O)Nc1ccc2c(ccn2CC(=O)N(CC)CC)c1', '18.4%'),
  ('O=c1c2sccc2nc2n1CCN(Cc1cccs1)CC2', '12.2%'),
  ('O=C(c1ccncc1F)N1CCN(CC2CC2)c2ncccc2C1', '-1.33%'),
  ('O=C(c1cc[nH]n1)N1CCC(Nc2cccnn2)CC1', '7.79%'),
  ('CC(C)NC(=O)[C@@H]1C[C@H](N)CN1C(=O)c1cc2c([nH]c1=O)CCCC2', '6.94%');
